Listed here: items and their measured pIC50.
molecular target: Methionine--tRNA ligase (Escherichia coli K-12); assay: Inhibition of Escherichia coli MetRS assessed as decrease in [35S]methionyl tRNAMet production by SPA
Sequence (P00959 whole entry): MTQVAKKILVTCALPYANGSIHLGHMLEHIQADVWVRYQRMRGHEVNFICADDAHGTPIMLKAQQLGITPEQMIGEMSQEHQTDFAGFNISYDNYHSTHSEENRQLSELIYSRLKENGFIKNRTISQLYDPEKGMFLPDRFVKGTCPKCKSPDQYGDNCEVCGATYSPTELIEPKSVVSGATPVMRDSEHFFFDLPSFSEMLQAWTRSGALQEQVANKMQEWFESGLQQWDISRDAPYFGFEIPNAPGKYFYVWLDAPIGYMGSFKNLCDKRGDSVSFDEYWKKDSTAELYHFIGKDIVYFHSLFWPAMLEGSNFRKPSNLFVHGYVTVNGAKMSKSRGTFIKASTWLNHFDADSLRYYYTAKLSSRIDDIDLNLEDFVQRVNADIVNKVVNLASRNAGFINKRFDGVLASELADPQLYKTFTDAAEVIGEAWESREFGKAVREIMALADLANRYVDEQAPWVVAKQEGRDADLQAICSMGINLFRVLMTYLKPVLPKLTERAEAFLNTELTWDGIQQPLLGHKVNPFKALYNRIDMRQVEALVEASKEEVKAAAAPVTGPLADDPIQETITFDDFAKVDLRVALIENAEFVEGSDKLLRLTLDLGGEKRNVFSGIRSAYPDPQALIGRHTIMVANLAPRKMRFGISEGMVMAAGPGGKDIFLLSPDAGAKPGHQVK
Entry type: numeric. Quantity: pIC50, the -log10 of concentration in molar units.

> print(dat)
                                smiles.repr  observable  quantitative.result
1  O=C(CNC(=O)c1cccs1)N/N=C/c1ccc(C(=O)O)cc1       pIC50                 6.63
2  O=C(CC(=O)Nc1ccccc1C(=O)O)Nc1nc2ccc(Br)cc2s1       pIC50                 4.52
3  O=C(CNC(=O)c1cccc(Br)c1)N/N=C/c1ccc(C(=O)O)cc1       pIC50                 4.64

Then this molecule:
Ask: Param readout= pIC50; system= Methionine--tRNA ligase (Escherichia coli K-12); entry= `NS(=O)(=O)c1ccc(CCNC(=S)Nc2cccc(C(F)(F)F)c2)cc1` ; returns value.
Result: 4.32
